Below, each entry is listed alongside its reported inhibition.
- target: Induced myeloid leukemia cell differentiation protein Mcl-1 (Homo sapiens)
- procedure details: disruptors of Mcl-1 and Noxa BH3 peptide – biochemical, TR-FRET, 1536-well, primary screen (AID 1022);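 further: His-tagged Mcl-1 with rhodamine Noxa BH3 peptide and terbium anti-His antibody; 0% = Mcl-1 plus Noxa peptide wells and 100% = peptide-only wells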
- test settings: TR-FRET Mcl-1/Noxa peptide binding, 2 h; at 21.7 µM; stronger effect = higher value
Out of some 220,000 compounds screened, about 3,300 (1.5%) were called active. The full list was thinned out, with actives kept by preference.

compound	inhibition, %
CC(C)(C)NC(=O)NCc1ccco1	8.79
CCn1cc(C(=O)NCC2COc3ccccc3O2)c2cc(OC)c(OC)cc2c1=O (stereo unspecified)	-0.39
Cc1ccc(-c2ccc(/C=C(\C#N)C(N)=S)o2)c([N+](=O)[O-])c1	58.2
CCn1cc(C(=O)NCc2ccc3c(c2)OCO3)c2cc(OC)c(OC)cc2c1=O	74.5
N#C/C(=C/c1ccc(-c2ccccc2[N+](=O)[O-])o1)C(=O)NCCN1CCCCC1	26.3
COc1cccc(C(=O)n2ccc(-c3cccs3)n2)c1	1.68

----------
- target: Induced myeloid leukemia cell differentiation protein Mcl-1 (Homo sapiens)
- procedure details: disruptors of Mcl-1 and Noxa BH3 peptide – biochemical, TR-FRET, 1536-well, primary screen (AID 1022);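 further: His-tagged Mcl-1 with rhodamine Noxa BH3 peptide and terbium anti-His antibody; 0% = Mcl-1 plus Noxa peptide wells and 100% = peptide-only wells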
- test settings: TR-FRET Mcl-1/Noxa peptide binding, 2 h; at 21.7 µM
The campaign covered roughly 220,000 compounds. About 3,300 (1.5%) were called active.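 How the source made its calls: active means compounds that cut the protein-peptide binding signal by more than 50% relative to plate controls in a single-dose test; inactive means the rest.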 What follows is part of a selection rich in actives, with near analogues and random picks from the rest.
Classes used: 1 (yes) (active), 0 (no) (inactive)

molecule	target	discrete label
O=C(O)/C=C/C(=O)NNc1ccc([N+](=O)[O-])cc1	Induced myeloid leukemia cell differentiation protein Mcl-1 (Homo sapiens)	1 (yes)
c1ccc(CSc2nnc(-c3ccco3)n2Cc2ccccc2)cc1	Induced myeloid leukemia cell differentiation protein Mcl-1 (Homo sapiens)	1 (yes)
Cc1cc(-c2n[nH]c(=S)n2/N=C/c2ccco2)n[nH]1	Induced myeloid leukemia cell differentiation protein Mcl-1 (Homo sapiens)	0 (no)
Cc1c(NC(=O)/C=C/C(=O)O)cccc1[N+](=O)[O-]	Induced myeloid leukemia cell differentiation protein Mcl-1 (Homo sapiens)	0 (no)
O=C(CSc1nnc(Nc2ccccc2)s1)Nc1cccnc1Cl	Induced myeloid leukemia cell differentiation protein Mcl-1 (Homo sapiens)	0 (no)
CC(C)n1c(CN2CCN(Cc3ccccc3)CC2)nc2ccccc21	Induced myeloid leukemia cell differentiation protein Mcl-1 (Homo sapiens)	0 (no)
Cc1cc(C(=O)N/N=C/c2ccc(O)c([N+](=O)[O-])c2)c(C)n1-c1ccc(F)cc1	Induced myeloid leukemia cell differentiation protein Mcl-1 (Homo sapiens)	1 (yes)
c1ccc(CSc2nnc(-c3ccco3)c(-c3ccco3)n2)cc1	Induced myeloid leukemia cell differentiation protein Mcl-1 (Homo sapiens)	1 (yes)
COC(OC)c1ccnc(SCc2ccccc2Cl)n1	Induced myeloid leukemia cell differentiation protein Mcl-1 (Homo sapiens)	0 (no)
CC(C)c1ccc(Nc2nnc(SCC(=O)c3nnc(-c4ccccc4)o3)s2)cc1	Induced myeloid leukemia cell differentiation protein Mcl-1 (Homo sapiens)	1 (yes)
Cc1cc(-c2n[nH]c(=S)n2/N=C/C(Br)=C/c2ccccc2)n[nH]1	Induced myeloid leukemia cell differentiation protein Mcl-1 (Homo sapiens)	1 (yes)
CCOC(=O)CN(C)S(=O)(=O)c1ccc(-c2cc(C(=O)OC)sc2C(F)(F)F)cc1	Induced myeloid leukemia cell differentiation protein Mcl-1 (Homo sapiens)	0 (no)
O=C(Nc1ccccc1C(F)(F)F)N1CCCC1c1cccnc1 (stereo not drawn)	Induced myeloid leukemia cell differentiation protein Mcl-1 (Homo sapiens)	0 (no)
Cc1nn(CC(=O)N/N=C/c2ccc(F)cc2)c(C)c1[N+](=O)[O-]	Induced myeloid leukemia cell differentiation protein Mcl-1 (Homo sapiens)	0 (no)
O=C(Cc1cccs1)Nc1nnc(C2CC2)s1	Induced myeloid leukemia cell differentiation protein Mcl-1 (Homo sapiens)	0 (no)
CCc1ccc(NC(=O)N[C@H](C(=O)O)C(C)CC)cc1 (stereo partly drawn)	Induced myeloid leukemia cell differentiation protein Mcl-1 (Homo sapiens)	0 (no)
COc1ccc(Cc2nnc(NC(=O)Cc3cccs3)s2)cc1	Induced myeloid leukemia cell differentiation protein Mcl-1 (Homo sapiens)	1 (yes)
Cc1ccc(OCC(=O)c2cc(C)n(Cc3ccco3)c2C)c([N+](=O)[O-])n1	Induced myeloid leukemia cell differentiation protein Mcl-1 (Homo sapiens)	0 (no)
O=[N+]([O-])c1c(NCCO)cc(Sc2nc3ccccc3s2)c2nonc12	Induced myeloid leukemia cell differentiation protein Mcl-1 (Homo sapiens)	1 (yes)
O=C(Nc1nnc(SCc2ccccc2)s1)c1ccco1	Induced myeloid leukemia cell differentiation protein Mcl-1 (Homo sapiens)	0 (no)
S=c1[nH]nc(-c2cccnc2)n1/N=C/C(Cl)=C\c1ccccc1	Induced myeloid leukemia cell differentiation protein Mcl-1 (Homo sapiens)	0 (no)
CCc1nnc(NC(=O)Cc2cccs2)s1	Induced myeloid leukemia cell differentiation protein Mcl-1 (Homo sapiens)	0 (no)
O=C(CSc1nc2ccccc2s1)Nc1ccc(C(=O)O)cc1	Induced myeloid leukemia cell differentiation protein Mcl-1 (Homo sapiens)	0 (no)

----------
- target: Induced myeloid leukemia cell differentiation protein Mcl-1 (Homo sapiens) (UniProt Q07820)
- Sequence (Q07820 whole entry, looked up): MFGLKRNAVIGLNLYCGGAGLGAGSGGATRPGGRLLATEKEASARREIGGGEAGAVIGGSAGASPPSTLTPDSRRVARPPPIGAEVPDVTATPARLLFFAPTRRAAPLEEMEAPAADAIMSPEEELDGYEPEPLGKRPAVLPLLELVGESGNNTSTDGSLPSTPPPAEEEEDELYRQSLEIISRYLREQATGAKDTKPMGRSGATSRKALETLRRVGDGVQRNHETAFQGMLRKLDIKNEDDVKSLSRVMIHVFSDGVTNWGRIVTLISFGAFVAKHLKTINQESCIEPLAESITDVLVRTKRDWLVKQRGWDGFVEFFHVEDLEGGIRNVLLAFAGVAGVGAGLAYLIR
- procedure details: disruptors of Mcl-1 and Noxa BH3 peptide – biochemical, TR-FRET, 1536-well, primary screen (AID 1022);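 further: His-tagged Mcl-1 with rhodamine Noxa BH3 peptide and terbium anti-His antibody; 0% = Mcl-1 plus Noxa peptide wells and 100% = peptide-only wells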
- test settings: TR-FRET Mcl-1/Noxa peptide binding, 2 h; at 21.7 µM; stronger effect = higher value
Screen size: about 220,000 compounds; about 3,300 (1.5%) were called active. The sample as a whole holds a higher share of actives than the screen did.

molecule	inhibition [%]
CN1CCN(C2=NCCO2)CC1	3.88
OC(c1ccccc1)C(CN1CCOCC1)c1ccccc1 (configuration not stated)	6.74
CS(=O)(=O)c1ccc(Cl)c(NC(=O)Nc2ccccc2)c1	2.41
O=C(NNC(=S)Nc1ccc(F)cc1)[C@H]1C[C@@H]1c1ccccc1	-82.4
CC1(C)CC(=O)C(N=Nc2c(F)cccc2F)=C(O)C1	-2.76
COc1ccccc1/C=C/C=N/NC(=O)CN1CCN(Cc2ccccc2)CC1	0.78
Cc1nnc(Nc2ccccc2F)s1	-14.1
Clc1cccc(-c2nc3nc4ccccc4nc3n2Cc2ccco2)c1	4.89
CC(C)(C)n1cnnc1Sc1ccc([N+](=O)[O-])cn1	2.83
N#Cc1c(N2CCCCC2)nc(N)c2c(N)nc(SCC(=O)O)cc12	57.7
O=C(Nc1ccccc1)c1nnsc1S(=O)(=O)c1ccc(Cl)cc1	68.7
Cc1nc(C(=O)N2CCCC(C(=O)c3ccc(Cl)cc3)C2)cs1 (configuration not stated)	-4.61

----------
- target: Induced myeloid leukemia cell differentiation protein Mcl-1 (Homo sapiens) (UniProt Q07820)
- procedure details: disruptors of Mcl-1 and Noxa BH3 peptide – biochemical, TR-FRET, 1536-well, primary screen (AID 1022);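 further: His-tagged Mcl-1 with rhodamine Noxa BH3 peptide and terbium anti-His antibody; 0% = Mcl-1 plus Noxa peptide wells and 100% = peptide-only wells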
- test settings: TR-FRET Mcl-1/Noxa peptide binding, 2 h; at 21.7 µM; stronger effect = higher value
Screen size: about 220,000 compounds; about 3,300 (1.5%) were called active. The full list was thinned out, with actives kept by preference.

compound	inhibition [%]
COc1ccc(NC(=S)NCCN2CCC(C)CC2)cc1	19.6
Clc1ccc(C2=CSC3=Nc4cccc5cccc(c45)N23)cc1	61.8
O=C1CCCC(O)=C1N=Nc1ccc2ncsc2c1	62.8
CC[C@H]1CN2CCc3cc(OC)c(OC)cc3[C@@H]2C[C@@H]1C[C@H]1NCCc2cc(OC)c(OC)cc21	22.4
CN1CCN(c2ccc(S(=O)(=O)Nc3ccccc3)cc2[N+](=O)[O-])CC1	-7.35
COc1ccc(-c2cn(-c3ccc(OC)cc3)c(=S)[nH]2)cc1	11.3
COc1cc(OC)c(-n2c(C)cc(C=O)c2C)cc1Cl	13.7
O=C(COC(=O)CCC(=O)c1cccs1)NCc1ccco1	41
COC(=O)c1nc(NC(=O)c2ccc(F)cc2)n[nH]1	-6.78
CC(NC(=O)COC(=O)c1ccc(Cl)cc1O)c1ccc(F)cc1 (stereo not given)	0.03
COc1cc(OC)cc(C(=O)OCC(=O)Nc2ccc(F)cc2F)c1	2.79
CCN1CCN(c2nc(Nc3cccc(F)c3)nc(N)c2[N+](=O)[O-])CC1	56.7
CNc1nc(Nc2ccc(C)c(Cl)c2)nc(N)c1[N+](=O)[O-]	26.8
O=[N+]([O-])c1cc(S(=O)(=O)Nc2cccc(Cl)c2)ccc1N=Nc1c(O)[nH]c2ccccc12	71.3
O=C(NCCc1ccccc1)Oc1ccc(Cl)cc1	7.49
COc1ccc(NC(=S)NCC2CCN(c3ccc(OC)cc3)C2)cc1 (stereo not given)	67.3
O=C(COC(=O)C12CC3CC(CC(C3)C1)C2)NCc1ccco1	54.8
COc1ccc(N2CCC(CNC(=S)Nc3c(C)cccc3C)C2)cc1 (stereo not given)	17.1
C/C(=N\NC(=O)c1cccnc1)c1ccc(-c2ccccc2)cc1	2.98
CSc1sc(C(=O)NNC(=O)c2ccc(Cl)cc2)c2c1C=CCC2	0.01
O=C(COC(=O)c1ccc(F)cc1F)Nc1ncccn1	65.1
CC(NC(=O)C(=O)Nc1nccs1)c1ccccc1 (stereo not given)	-15.7
O=C(CC12CC3CC(CC(C3)C1)C2)NCc1ccco1	2.69
CC(=O)Nc1ccc(C(=O)/C=C/c2ccc[nH]2)cc1	15.7
O=c1c(/C=N/O)coc2ccc(Cl)cc12	4.15
O=C(OC1CCCCC1=O)c1cccc(S(=O)(=O)NCc2ccccc2)c1 (stereo not given)	-5.3
CCOC(=O)C1C(c2ccc(OC)c(OC)c2)c2c([nH][nH]c2=O)CC1(C)O (stereo not given)	-16.2
O=C1CCCC(O)=C1N=Nc1ccc(S(=O)(=O)N2CCOCC2)cc1	23.9
COC(=O)c1nc(NC(=O)c2ccc(C(C)(C)C)cc2)n[nH]1	69.2
COc1ccc(CCNCC(O)Cn2ccc3ccccc32)cc1OC (stereo not given)	15.7
CN1CCN(c2ncc3c(n2)CC(c2ccccc2F)CC3=O)CC1 (stereo not given)	-10.3
Cc1cccc(N(CC(=O)N=Nc2c(O)[nH]c3ccccc23)S(C)(=O)=O)c1C	9.08
Cc1ccc(-c2cc(C(=O)Nc3nn[nH]n3)c3ccccc3n2)c(C)c1	10.4
Cc1c(NC(=O)c2cc(-c3ccc(Cl)s3)nc3ccccc23)c(=O)n(-c2ccccc2)n1C	-5.37
CC/C=C/C(=O)N1CC2(CC(c3cccc(NC(=O)CC)c3)=NO2)C[C@H]1C(N)=O (stereo not given in full)	-7.66
Nc1nnnn1/N=C/c1cc([N+](=O)[O-])ccc1O	-18
O=C(Cn1cnc2c(cnn2-c2ccccc2)c1=O)NCc1ccccc1	6.36
COc1cccc(N2C(=O)CC(N3CCc4ccccc4C3)C2=O)c1 (stereo not given)	-10.9
O=C(Nc1n[nH]c(C(F)(F)F)n1)c1cccs1	1.44
CN(C)c1ccc(Nc2c3c4c(cccc4n(C)c2=O)C(=O)c2ccccc2-3)cc1	104
CC(C)(C)NC(=O)Cn1cnc2cc([N+](=O)[O-])ccc2c1=O	27.1
CSC1=NCCN1C(=O)Cc1cccc2ccccc12	-0.87
Cc1ccc(/C=C/C(=O)Nc2ccc([N+](=O)[O-])c(NC(=O)/C=C/c3ccc(C)o3)c2)o1	88.8
COc1cc2c3c(c1)/C(=C1/SC(=S)NC1=O)C(=O)N3C(C)(C)C=C2C	64
Cc1ccc(N=Nc2c(C)[nH]n(-c3ccccc3)c2=O)cc1	23.8
